# measurement.target: hPD-L1 (antigen of the Biacore assay) (human, UniProt Q9NZQ7 19-238, limits assumed)
# Sequence (Q9NZQ7 19-238 limits assumed): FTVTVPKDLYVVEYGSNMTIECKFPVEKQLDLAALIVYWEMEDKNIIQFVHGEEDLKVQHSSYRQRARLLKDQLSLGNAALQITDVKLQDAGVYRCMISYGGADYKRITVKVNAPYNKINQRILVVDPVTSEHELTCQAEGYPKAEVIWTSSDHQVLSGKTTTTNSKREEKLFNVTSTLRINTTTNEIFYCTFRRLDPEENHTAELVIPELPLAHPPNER
# test.summary: SPR (Biacore), antibody captured on anti-human Fc, antigen in flow
observable: koff (s⁻¹)

binder	unit.name	result
4B6-H3L3 (antibody, V domains shown, Humanized; also called humanized 4B6 H3L3) VH: QVQLVQSGAEVVKPGASVKISCKASGYVFTDYYMNWVKQAPGQGLEWIGDINPNNGGTSYNQKFQGRATVTVDKSTRTAYMELSRLRSDDTAVYYCVKWGDGPFAYWGQGTLVTVSS VL: DIQMTQSQSSLSASVGDRVTITCQASQNVGAAVAWYQQKPGKAPKLLIYSASNRYTGVPSRFSGSGSGTDFTLTISSMQPEDIATYFCQQYSNYPTFGSGTKLGIK	s⁻¹	0.000927
23A11-H3L3 (antibody, V domains shown, Humanized; also called humanized 23A11 H3L3) VH: LVQLVQSGAEVKKPGASVKLSCKASGYIFTTYWIHWVKQRPGQGLEWIGMIQPNSGGTKYNDQFKNRATLTVDKSISTAYMELSRLTSDDTAVYYCARGAGTVDYFDYWGQGTTLSISS VL: DIVLTQSPASLAVSVGQRATITCRASESVDIYGNSFMHWYQQKPGQSPKLLIYRASNLESGIPARFSGSGSRTDFTLTINPVEANDTATYYCHQSNDDPYTFGGGTKLETK	s⁻¹	0.0542
23F11-H6L4 (antibody, V domains shown, Humanized; also called humanized 23F11 H6L4) VH: QVQLVQSGAEVKKPGASVKVSCKASGYIFTTYWMHWVRQAPGQGLEWIGMIQPNSGGTKYNEKFKKKATLTVDTSISTAYMELSRLRSDDTAVYYCARGAGTVDYFDYWGQGSTLTVSS VL: DIVLTQSPASLAVSVGQRATITCRASESVDIYGNSFMHWYQQKPGQPPKLLIYRASNLESGIPARFSGSGSRTDFTLTINPVEANDTATYYCQQSTEDPYTFGGGTKLEIK	s⁻¹	0.0448
4B6-H4L3 (antibody, V domains shown, Humanized; also called humanized 4B6 H4L3) VH: QVQLVQSGAEVKKPGASVKVSCKASGYVFTDYYMNWVRQAPGQGLEWIGDINPNNGGTSYNQKFQGRVTVTVDTSIRTAYMELSRLRSDDTAVYYCVKWGDGPFAYWGQGTLVTVSS VL: DIQMTQSQSSLSASVGDRVTITCQASQNVGAAVAWYQQKPGKAPKLLIYSASNRYTGVPSRFSGSGSGTDFTLTISSMQPEDIATYFCQQYSNYPTFGSGTKLGIK	s⁻¹	0.00148
18G4-chimeric (antibody, V domains shown, Mouse variable regions fused to a human IgG1 constant region) VH: QVQLQQPGTALVKPGASVKLSCKASGYTFSSYYIHWVKQRPGQGLEWIGNINPFNGGSIYNEKFKNKASLTVDTSSNTAYMQLSSLTSEDSAVYYCARWHFDYWGQGTSLTVSS VL: DIVMTQSPSSLAVTAGEKVTLKCKSSQSLLWSGNQNNYLSWYQQKQGQPPKLLIYGASIRESWVPDRFTGSGSGTDFTLTIGNVSAEDLAVYYCQHNHGSFLPYTFGGGTRLEIK	s⁻¹	0.00515
23A11-H3L5 (antibody, V domains shown, Human IgG1 constant region with N297A; biotinylated in the alanine-scan ELISA; also called 23A11-H3L5-bio; humanized 23A11) VH: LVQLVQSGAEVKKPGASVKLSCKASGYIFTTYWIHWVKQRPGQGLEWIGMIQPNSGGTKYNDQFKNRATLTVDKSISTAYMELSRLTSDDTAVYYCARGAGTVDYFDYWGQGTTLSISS VL: DIVLTQSPASLAVSVGQRATITCRASESVDIYGNSFMHWYQQKPGQAPKLLIYRASNLESGIPARFSGSGSRTDFTLTINPVEANDTATYYCQQSNDDPYTFGGGTKLETK	s⁻¹	0.0223
23F11-H4L4 (antibody, V domains shown, Human IgG1 constant region with N297A; biotinylated in the alanine-scan ELISA; also called 23F11-H4L4-bio; humanized 23F11) VH: QVQLVQSGAEVKKPGASVKLSCKASGYIFTTYWMHWVKQRPGQGLEWIGMIQPNSGGTKYNEKFKKKATLTVDKSISTAYMELSRLTSDDTAVYYCARGAGTVDYFDYWGQGSTLTVSS VL: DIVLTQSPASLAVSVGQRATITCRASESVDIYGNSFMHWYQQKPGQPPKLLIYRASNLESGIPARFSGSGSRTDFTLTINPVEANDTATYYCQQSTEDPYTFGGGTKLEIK	s⁻¹	0.0304

Numbers sourced from patent US20210009693A1.
